The reported numbers originate from patent US20160122426A1.

Molecular target: T1, human VEGF (human, UniProt P15692-4 27-191)
T1 construct: Bought recombinant protein; also called hVEGF; human VEGF-A
T1 sequence (P15692 other isoform, or with tags, fused parts or gaps limits assumed): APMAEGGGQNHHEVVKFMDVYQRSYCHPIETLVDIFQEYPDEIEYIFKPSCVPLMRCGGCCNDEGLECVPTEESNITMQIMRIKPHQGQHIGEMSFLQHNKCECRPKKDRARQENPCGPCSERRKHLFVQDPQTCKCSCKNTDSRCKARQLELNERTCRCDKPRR
Assay: SPR (BIAcore X100), VEGF on CM5 chip, IgG injected, 1:1 Langmuir
Below is a list of entries, each paired with its recorded Kd value.

BINDER	ASSAY VALUE
HF2-14 (antibody, V domains shown) VH: EVQLVESGGGLVQPGGSLRLSCAASHSSIRSHGMQWVRQAPGKGLEYVAGISSDGSWLRQDAAVEGRFTISRDDSKNTAYLQMNSLRAEDTAVYYCARDFSTGYGADSIDAWGQGTLVTVSS VL: DIQMTQSPSSLSASVGDRVTITCSGGSDSAYGYGWYQQKPGKAPKTLIYWDDKRPSGVPSRFSGSRSGTDFTLTISSLQPEDFATYYCGAWEYSGGVGIFGQGTKVEIK	< 1 pM
HF2-3 (antibody, V domains shown, also called HF-3) VH: EVQLVESGGGLVQPGGSLRLSCAASHFNMRSHGMQWVRQAPGKGLEYVAGISSDGSWFRVAAAVEGRFTISRDDSKNTAYLQMNSLRAEDTAVYYCARDFSTGYGADSIDAWGQGTLVTVSS VL: DIQMTQSPSSLSASVGDRVTITCSGGSDSAYGYGWYQQKPGKAPKTLIYWDDKRPSGAPSRFSGSRSGTDFTLTISSLQPEDFATYYCGAWEYSGGVGIFGQGTKVEIK	< 1 pM

Value lookup for Kd; key = HF2-4 (antibody, V domains shown, also called HF-4) VH: EVQLVESGGGLVQPGGSLRLSCAASGWSMRSHGMQWVRQAPGKGLEYVAGISSDGSWRRHSAAVEGRFTISRDDSKNTAYLQMNSLRAEDTAVYYCARDFSTGYGADSIDAWGQGTLVTVSS VL: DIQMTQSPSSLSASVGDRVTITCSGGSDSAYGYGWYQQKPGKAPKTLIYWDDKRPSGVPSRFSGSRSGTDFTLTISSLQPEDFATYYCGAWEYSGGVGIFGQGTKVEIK
1.9 pM
